assay: Growth inhibition of human NCI60 cells after 48 hrs by SRB assay; type: functional; details: NCI60, 48 h
Binary call on TGI with cut-off 70 nM: strictly below means satisfied, and equality or higher means not satisfied.

| smilesStructure | labelValue |
| --- | --- |
| COc1cc2c(cc1OC)C(=O)N1C=C(c3cnn(C)c3)C[C@H]1C=N2 | satisfied |

Turning now to a further compound:
Does COc1cc2c(cc1OC)C(=O)N1C=C(c3cccc4c3Sc3ccccc3S4)C[C@H]1C=N2 have TGI strictly under 70 nM?
not satisfied

----------
test: Growth inhibition of human NCI60 cells after 48 hrs by SRB assay; format: functional; settings: NCI60, 48 h
propertyMeasured: log10 TGI (log10 of the value in nM)
Please be aware that the numbers have been log10-transformed from TGI in nM.

| smilesStructure | number |
| --- | --- |
| COc1cc2c(cc1OC)C(=O)N1C=C(c3ccc4ncccc4c3)C[C@H]1C=N2 | 0.60 |
| C=CC1=CN2C(=O)c3cc(OC)c(OC)cc3N=C[C@@H]2C1 | 3.09 |
| COc1cc2c(cc1OC)C(=O)N1C=C(c3ccc(-c4ccccc4)cc3)C[C@H]1C=N2 | 1.95 |
| COc1cc2c(cc1OC)C(=O)N1C=C(c3ccccc3C(F)(F)F)C[C@H]1C=N2 | 2.20 |
| COc1cc2c(cc1OC)C(=O)N1C=C(c3ccc4ncccc4c3)C[C@H]1[C@H](S(=O)(=O)O)N2 | 0.60 |

In one line, give reported log10 TGI of the entry COc1cc2c(cc1OC)C(=O)N1C=C(c3ccc(O)cc3)C[C@H]1C=N2 .
1.90

In one line, give reported log10 TGI of the entry CCOc1ccc2cc(C3=CN4C(=O)c5cc(OC)c(OC)cc5N=C[C@@H]4C3)ccc2c1 .
1.30

In one line, give reported log10 TGI of the entry COc1cc2c(cc1OC)C(=O)N1C=C(c3cccc(N)c3)C[C@H]1C=N2 .
1.70

In one line, give reported log10 TGI of the entry COc1cc2c(cc1OC)C(=O)N1C=C(c3ccc(N4CCOCC4)cc3)C[C@H]1C=N2 .
2.20

----------
tested on: Calf thymus DNA; assay: Binding affinity to calf thymus DNA assessed as change in melting temperature after 4 hrs; format: nucleic-acid assay; settings: Bos taurus
propertyMeasured: ΔTm (°C)
Quick note: give the figure in °C, leave out the unit.

Use these answered entries as a reference point.
| smilesStructure | unitsOfMeasure | ΔTm |
| --- | --- | --- |
| COc1cccc(C2=CN3C(=O)c4cc(OC)c(OC)cc4N=C[C@@H]3C2)c1 | °C | 10.1 |
| COc1cc2c(cc1OC)C(=O)N1C=C(c3ccc(SC)cc3)C[C@H]1C=N2 | °C | 10.5 |
| COc1cc2c(cc1OC)C(=O)N1C=C(c3ccc(C#N)cc3)C[C@H]1C=N2 | °C | 10.9 |
| C/C=C/C1=CN2C(=O)c3cc(O[C@@H]4O[C@@H](C)[C@H](NC)[C@@](C)(O)[C@H]4O)c(C)c(O)c3N[C@H](O)[C@@H]2C1 | °C | 16 |
| CO[C@H]1Nc2c(ccc(C)c2O)C(=O)N2C=C(/C=C/C(N)=O)C[C@@H]12 | °C | 11.2 |

In one line, give reported ΔTm of the entry COc1cc2c(cc1OC)C(=O)N1C=C(c3ccc(C(F)(F)F)cc3)C[C@H]1C=N2 .
11.7

In one line, give reported ΔTm of the entry COc1cc2c(cc1OC)C(=O)N1C=C(c3ccc(Oc4ccccc4)cc3)C[C@H]1C=N2 .
11.9

In one line, give reported ΔTm of the entry COc1cc2c(cc1OC)C(=O)N1C=C(c3ccc(C(C)(C)C)cc3)C[C@H]1C=N2 .
9

In one line, give reported ΔTm of the entry COc1cc2c(cc1OC)C(=O)N1C=C(c3ccc(F)cc3)C[C@H]1C=N2 .
10.4

In one line, give reported ΔTm of the entry COc1ccc(C2=CN3C(=O)c4cc(OC)c(OC)cc4N=C[C@@H]3C2)cc1 .
10.5

In one line, give reported ΔTm of the entry COc1cc2c(cc1OC)C(=O)N1C=C(c3ccc(C)cc3)C[C@H]1C=N2 .
9.8

In one line, give reported ΔTm of the entry COc1cc2c(cc1OC)C(=O)N1C=C(c3ccc(Cl)cc3)C[C@H]1C=N2 .
9.9

In one line, give reported ΔTm of the entry COc1cc2c(cc1OC)C(=O)N1C=C(c3cccs3)C[C@H]1C=N2 .
12.7

In one line, give reported ΔTm of the entry COc1cc2c(cc1OC)C(=O)N1C=C(c3ccc4c(c3)OCO4)C[C@H]1C=N2 .
10.3

In one line, give reported ΔTm of the entry CCc1ccc(C2=CN3C(=O)c4cc(OC)c(OC)cc4N=C[C@@H]3C2)cc1 .
9.4

In one line, give reported ΔTm of the entry COc1cc2c(cc1OC)C(=O)N1C=C(c3ccc(C(C)C)cc3)C[C@H]1C=N2 .
6.7

In one line, give reported ΔTm of the entry COc1cc2c(cc1OC)C(=O)N1C=C(c3ccccc3C)C[C@H]1C=N2 .
6.8

In one line, give reported ΔTm of the entry COc1cc2c(cc1OC)C(=O)N1C=C(c3ccc(-c4ccccc4)cc3)C[C@H]1C=N2 .
8.1

Measured values drawn from ChEMBL document CHEMBL1165887 for this set.
